tested on: LG0703-F498-PDC complex spheroid growth; assay: Anticancer human tumor LG0703-F498-PDC patient-derived lung adenocarcinoma cell line growth inhibition [AhR]; conditions: second compound 0.1 µM; first compound 0.0316 µM; hits give low values;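 also: luminescence taken as a proxy for viable cell amount; percent of DMSO vehicle control where 100% means growth equal to vehicle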
experimentalReadout: viability, T/C (%)
Give bare numbers, in %.

I would be grateful if you could provide viability, T/C for each of the following entries.
1. CC[C@@]1(O)C(=O)OCc2c1cc1n(c2=O)Cc2cc3c(CN(C)C)c(O)ccc3nc2-1 + Cc1cncc(-c2nc(NCCc3c[nH]c4ccccc34)c3ncn(C(C)C)c3n2)c1
2. Nc1ccn(C2OC(CO)C(O)C2(F)F)c(=O)n1 (stereo not drawn) + Cc1ccccc1N=Nc1ccc(NC(=O)c2ccnn2C)c(C)c1

Resp:
78.6
40.4

Req: Return viability, T/C measured with LG0703-F498-PDC complex spheroid growth given this compound: CC(C)c1c(-c2ccccc2)nc2c(C#N)c[nH]n2c1=O + Cc1cncc(-c2nc(NCCc3c[nH]c4ccccc34)c3ncn(C(C)C)c3n2)c1
Resp: 108
